target: Serine/threonine-protein kinase tousled-like 2 (Homo sapiens) (UniProt Q86UE8); conditions: at 1 µM
Sequence (Q86UE8 whole entry, looked up): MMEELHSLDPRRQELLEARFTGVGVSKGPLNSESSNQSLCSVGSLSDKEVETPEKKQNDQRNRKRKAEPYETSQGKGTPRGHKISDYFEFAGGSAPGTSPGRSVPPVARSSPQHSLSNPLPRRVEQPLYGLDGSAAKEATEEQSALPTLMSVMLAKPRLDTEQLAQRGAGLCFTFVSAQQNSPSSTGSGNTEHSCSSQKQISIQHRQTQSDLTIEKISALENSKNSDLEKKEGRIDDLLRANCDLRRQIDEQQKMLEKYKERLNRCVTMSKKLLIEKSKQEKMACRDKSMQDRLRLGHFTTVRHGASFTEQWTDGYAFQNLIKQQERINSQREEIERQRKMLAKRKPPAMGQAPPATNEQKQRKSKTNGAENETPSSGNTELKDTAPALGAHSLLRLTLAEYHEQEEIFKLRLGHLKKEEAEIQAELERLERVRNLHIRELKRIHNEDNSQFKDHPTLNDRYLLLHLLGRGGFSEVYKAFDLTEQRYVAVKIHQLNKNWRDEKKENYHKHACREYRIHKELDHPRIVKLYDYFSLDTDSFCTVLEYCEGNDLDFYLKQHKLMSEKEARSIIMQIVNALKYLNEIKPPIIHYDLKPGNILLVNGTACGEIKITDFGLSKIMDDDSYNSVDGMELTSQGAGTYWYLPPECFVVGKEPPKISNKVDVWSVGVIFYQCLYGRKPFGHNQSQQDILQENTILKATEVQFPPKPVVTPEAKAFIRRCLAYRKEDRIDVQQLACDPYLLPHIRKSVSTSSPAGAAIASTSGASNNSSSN
Give residual activity for every item shown.
Please append the unit to your numeric answer.

`CC(C)(C)n1nc(Cc2cccc3ccccc23)c2c(N)ncnc21` yielded residual activity of 104%

`Nc1ncnc2c1c(-c1ccc(Oc3ccccc3)cc1)cn2C1CCCC1` yielded residual activity of 92%

`COc1cc2nccc(Oc3ccc(NC(=S)NC(=O)c4ccccc4C)cc3)c2cc1OC` yielded residual activity of 101%

`COc1ccc(Cl)cc1NC(=O)Nc1cc(C)nc2ccccc12` yielded residual activity of 97%

`CCCC(=O)Oc1ccc2[nH]c(C(=O)c3cc4ccccc4[nH]3)cc2c1` yielded residual activity of 100%

`CN(C)S(=O)(=O)c1ccc2c(c1)/C(=C/c1cc3c([nH]1)CCCC3)C(=O)N2` yielded residual activity of 98%

`COc1cc2ncnc(Nc3cccc(Cl)c3)c2cc1OC` yielded residual activity of 119%

`CC(C)c1nn(-c2c(Cl)cccc2Cl)c2nc(Cc3ccc(OCCO)cc3)[nH]c(=O)c12` yielded residual activity of 80%

`c1ccc(-c2cnc(Nc3ccc(OCCN4CCCC4)cc3)s2)cc1` yielded residual activity of 105%

`O=C1NC(=O)C(c2cn(CCCn3ccnc3)c3ccccc23)=C1Nc1ccccc1` yielded residual activity of 44%

`NC(=O)Nc1sc(-c2ccc(F)cc2)cc1C(N)=O` yielded residual activity of 72%

`COc1cc2nccc(Oc3ccc(NC(=O)Nc4cc(C)on4)c(Cl)c3)c2cc1OC` yielded residual activity of 104%

O=C(NC(NC(=S)Nc1ccc(F)c([N+](=O)[O-])c1)C(Cl)(Cl)Cl)C(c1ccccc1)c1ccccc1 (stereo not drawn) yielded residual activity of 99%

`O=C(CCCc1ccc(-c2ccccc2F)cc1)Nc1ccc(O)cc1` yielded residual activity of 103%

`Cn1sc(=O)n(Cc2ccccc2)c1=O` yielded residual activity of 84%

`CCN(CC)CCNC(=O)c1c(C)[nH]c(/C=C2\C(=O)Nc3ccc(Cl)cc32)c1C` yielded residual activity of 69%

`CC(C)N(CCC(=O)c1ccc2ccccc2c1)Cc1ccccc1` yielded residual activity of 86%

`N#Cc1c(NC(=O)c2cccc3ccccc23)sc2c1CCCC2` yielded residual activity of 100%

====

molecular target: cAMP-dependent protein kinase catalytic subunit PRKX (Homo sapiens); conditions: at 10 µM
Give residual activity for every item shown.
Numbers only here, please. The scale is %.

Kindly note: cAMP-dependent protein kinase catalytic subunit PRKX (Homo sapiens), `O=C1NC(=O)c2c1c1c3ccccc3[nH]c1n1cncc21` , residual activity value reported: 75

Kindly note: cAMP-dependent protein kinase catalytic subunit PRKX (Homo sapiens), `CC(C)[C@H](CO)Nc1nc(Nc2cc(N)cc(Cl)c2)c2ncn(C(C)C)c2n1` , residual activity value reported: 88

Kindly note: cAMP-dependent protein kinase catalytic subunit PRKX (Homo sapiens), `CC(C)c1nn(-c2c(Cl)cccc2Cl)c2nc(Cc3ccc(OCCO)cc3)[nH]c(=O)c12` , residual activity value reported: 87

Kindly note: cAMP-dependent protein kinase catalytic subunit PRKX (Homo sapiens), `O=S(=O)(NCCNC/C=C/c1ccc(Br)cc1)c1cccc2cnccc12` , residual activity value reported: 0

Kindly note: cAMP-dependent protein kinase catalytic subunit PRKX (Homo sapiens), `O=c1c(-c2ccc(F)cc2)c(-c2ccncc2)[nH]n1-c1ccc(Cl)cc1` , residual activity value reported: 71

Kindly note: cAMP-dependent protein kinase catalytic subunit PRKX (Homo sapiens), `Nc1ncnc2c1c(-c1ccc(Oc3ccccc3)cc1)cn2C1CCCC1` , residual activity value reported: 66

Kindly note: cAMP-dependent protein kinase catalytic subunit PRKX (Homo sapiens), `CCOc1nc(NC(=O)Cc2cc(OC)ccc2OC)cc(N)c1C#N` , residual activity value reported: 55

Kindly note: cAMP-dependent protein kinase catalytic subunit PRKX (Homo sapiens), `O=C(Nc1nc2ccccc2n1CCN1CCOCC1)c1cccc([N+](=O)[O-])c1` , residual activity value reported: 86

Kindly note: cAMP-dependent protein kinase catalytic subunit PRKX (Homo sapiens), `CCCCc1c(-c2ccc(OC)cc2)[nH]c2nccnc12` , residual activity value reported: 101

Kindly note: cAMP-dependent protein kinase catalytic subunit PRKX (Homo sapiens), `CCN(CC)CCNC(=O)c1c(C)[nH]c(/C=C2\C(=O)Nc3ccc(Cl)cc32)c1C` , residual activity value reported: 37

Kindly note: cAMP-dependent protein kinase catalytic subunit PRKX (Homo sapiens), `NC(=O)c1ccc(-c2nc(-c3ccc4c(c3)OCCO4)c(-c3ccccn3)[nH]2)cc1` , residual activity value reported: 86
